assay: NCI Yeast Anticancer Drug Screen. Data for the mec2-1 strain (AID 157); settings: S. cerevisiae mec2-1 strain, at 50.0 µM, stronger effect = higher value
Compounds without any hit were thinned out: in the full panel of roughly 79,000, 15% have a hit.
Please note: Fulfilled applies when growth inhibition is 90% or greater, and Not fulfilled applies otherwise.

- CC1CCC2(CC1)OCC(C)O2 (stereo not drawn): Not fulfilled
- O=C(O)C(Cc1cc(I)c(O)c(I)c1)C1CCCCC1 (stereo not drawn): Fulfilled
- CN(C)CCC(/C=C/c1ccccc1)=N\Nc1ccc(Cl)cc1: Fulfilled
- Clc1ccc2nc3ccccc3nc2c1: Not fulfilled
- S=C(S)NCCN1CCNC1=S: Not fulfilled
- O=C(/C=C/c1ccccc1)CCN1CCOCC1: Not fulfilled
- Cc1ccc(O)c(C(C)c2ccccc2)c1 (stereo not drawn): Fulfilled

Each recorded value in this set is attributed to PubChem BioAssay (NCI).
